Test system: Plasmodium falciparum
Assay: Calibr Malaria Delayed Death Assay SOP
Format: functional, organism-based
Design: scale not given: in the data most compounds retested in dose-response had high values
Settings: concentration 4.99e-06 (unit not given; other assays of the set use mol/L)
Screen size: about 38,000 compounds; about 1,200 (3.2%) showed an effect of 50% or more. The median lay at about -58%. The sample holds strong results, similar compounds and a random draw of the others, so the mix is not that of the screen.
Catalogue of Percent Effect readings, one per entry.
Write it as a number; the unit % goes unstated.

                                   compound    experimental_system  measured_property     val
0  CC(c1ccc(C(F)(F)F)cc1)N1CCN(CCS(C)(=O)=O)CC1 (centres undefined)  Plasmodium falciparum     Percent Effect  -72.63
1  Cc1cc(C)c(N(CC(O)CNCc2ccco2)S(C)(=O)=O)c(C)c1.O=C(O)c1ccccc1 (centres undefined)  Plasmodium falciparum     Percent Effect   59.67
2  CC(NCC1CCN(CCO)CC1)c1ccc(C(F)(F)F)cc1 (centres undefined)  Plasmodium falciparum     Percent Effect   88.54
3  O=C(O)C(F)(F)F.O=C(O)C(F)(F)F.O=C1NC2(CCN(Cc3ccoc3)CC2)CC1c1ccncc1 (centres undefined)  Plasmodium falciparum     Percent Effect   -15.5
4    NC(=O)CCN(CC(=O)NCc1ccccn1)c1ccc(F)cc1  Plasmodium falciparum     Percent Effect  -98.56
5          CCN(CC)C(=O)COc1ccnc2cc(OC)ccc12  Plasmodium falciparum     Percent Effect  -91.77

-- ask // lookup Percent Effect for CCCNC(=O)CCNC(=O)c1sc2ccc(F)cc2c1C
-- reply -59.54

-- ask Thanks! And COc1cc(C(=O)N(Cc2ccco2)C2CC2)cc(OC)c1OC ?
-- reply -36.86

-- ask And then c1cc(-c2cnccn2)cc(-c2ccn(CCCN3CCCCC3)n2)c1 , what is it?
-- reply 18.71

* * *

Test system: Plasmodium falciparum
Test: Calibr Malaria Delayed Death Assay SOP
Format: functional, organism-based
Set-up: scale not given: in the data most compounds retested in dose-response had high values
Details: concentration 4.99e-06 (unit not given; other assays of the set use mol/L)
The whole screen tested about 38,000 compounds, of which about 1,200 (3.2%) showed an effect of 50% or more. The median lay at about -58%. This is one part of a sample in which strong results are shown more often than they occur.
Measured Property: Percent Effect (%)
Lab book: enter the figure in %, no units written.

Illustrative cases are given below, each with its answer.
                                   molecule     val
0  Cl.NC(CC1CCCCC1)c1ccccc1 (stereo not given)   55.85
1  O=C(O)C(F)(F)F.O=C(O)C(F)(F)F.O=C(O)C(F)(F)F.c1ccc(CN2CCC3(CC2)CCN(Cc2cccs2)C3)nc1   53.66
2  Cc1cccc(C2CCCN2S(=O)(=O)N(C)C)n1 (stereo not given)  -47.51
3   O=C(C1CCCCC1)N1CCC(c2n[nH]c3nccnc23)CC1  -76.32
4  O=C(C1CCC1)N1CCCC(c2cccc(-n3ccnc3)n2)C1 (stereo not given)  -55.02

-- ask So what does the record say about Percent Effect for COc1cccc(CNC(C)c2ccc(-n3ccnc3)cc2)c1OC.Cl (stereo not given) ?
-- reply 16.61

* * *

Tested on: Plasmodium falciparum
Assay: Calibr Malaria Delayed Death Assay SOP
Format: functional, organism-based
Set-up: scale not given: in the data most compounds retested in dose-response had high values
Details: concentration 4.99e-06 (unit not given; other assays of the set use mol/L)
In all, about 38,000 compounds went through this assay and about 1,200 (3.2%) showed an effect of 50% or more. The median lay at about -58%. The sample holds strong results, similar compounds and a random draw of the others, so the mix is not that of the screen.
Measured Property: Percent Effect (%)
Kindly answer with a numeric value in %, unit omitted.

Guide cases for Percent Effect, answers given:
>>> print(df.to_string())
                                   compound    experimental_system  unit_name     val
0  O=C(C[S+]([O-])Cc1cccc(Cl)c1)NC1CCCC1 (centres undefined)  Plasmodium falciparum          %  -107.7
1     COc1cc(C)sc1C(=O)NCCC(=O)N(C)c1ccccc1  Plasmodium falciparum          %   32.05
2  CC(C)NC(=O)C1CCN(C(C)C(=O)N2CCc3sccc3C2)CC1 (centres undefined)  Plasmodium falciparum          %  -19.38
3  CC(C)CN1C(=O)C2(CCN(Cc3ccoc3)C2)c2ccccc21.O=C(O)C(F)(F)F (centres undefined)  Plasmodium falciparum          %  -29.95
4  CC(C)c1nc(C2CCCN2C(=O)CCn2cncn2)no1 (centres undefined)  Plasmodium falciparum          %  -126.6

-- ask Record Nc1nc2c(c(NC(=O)Nc3cccc(Cl)c3)n1)CCCC2 : what is its Percent Effect with Plasmodium falciparum?
-- reply -1.173

-- ask Further, for CCS(=O)(=O)N1CCCn2c(nc(CN3CCCC3)cc2=O)C1 ?
-- reply -41.77

-- ask Continue with CCOCC1CN(Cc2ccc(OC)cc2)Cc2nn(CC3CC3)cc21.O=C(O)C(F)(F)F (centres undefined)
-- reply -47.96
